Known log10 MIC of a selection of compounds
- Test system: Staphylococcus aureus
- Method description: Antibacterial activity against Staphylococcus aureus ATCC 11632 after 24 hrs by broth microdilution method
- Format: functional
- Condition notes: ATCC 11632, 24 h
Readout kind: log10 MIC (log10 of the value in µg/mL)

- Compound: "CC(C)c1csc(-c2nn(CN3CCOCC3)c(=S)o2)n1"
  log10 MIC: 1.49
- Compound: "CC(C)c1csc(-c2n[nH]c(=S)n2NC(=O)c2ccc(O)cc2)n1"
  log10 MIC: 2.10
- Compound: "CC(C)c1csc(-c2nnc3n2N=C(c2ccccc2)CS3)n1"
  log10 MIC: 2.10
- Compound: "CC(C)c1csc(-c2nnc3n2NC(c2ccc(O)cc2)S3)n1 (configuration not stated)"
  log10 MIC: 1.80
- Compound: "CC(C)c1csc(-c2nnc3n2NC(c2ccc(F)cc2F)S3)n1 (configuration not stated)"
  log10 MIC: 0.90
- Compound: "Cc1nn2c(-c3nc(C(C)C)cs3)nnc2s1"
  log10 MIC: 1.80
- Compound: "CC(C)c1csc(-c2nnc3n2N=C(c2ccc(O)cc2)CS3)n1"
  log10 MIC: 1.80
- Compound: "COc1ccc(C2=Nn3c(nnc3-c3nc(C(C)C)cs3)SC2)cc1"
  log10 MIC: 0.90
- Compound: "COc1ccc(C(=O)Nn2c(-c3nc(C(C)C)cs3)n[nH]c2=S)cc1"
  log10 MIC: 1.80
- Compound: "CC(C)c1csc(-c2nnc3sc(S)nn23)n1"
  log10 MIC: 2.10
- Compound: "CC(C)c1csc(-c2nn(CN3CCN(C)CC3)c(=S)n2/N=C/c2ccccc2Cl)n1"
  log10 MIC: 1.20
- Compound: "COc1ccc(/C=N/n2c(-c3nc(C(C)C)cs3)nn(CN3CCOCC3)c2=S)cc1"
  log10 MIC: 2.10
- Compound: "COc1cc(C2Nn3c(nnc3-c3nc(C(C)C)cs3)S2)cc(OC)c1OC (configuration not stated)"
  log10 MIC: 1.49
- Compound: "COc1ccc(/C=N/n2c(-c3nc(C(C)C)cs3)nn(CN3CCN(C)CC3)c2=S)cc1"
  log10 MIC: 1.49
- Compound: "Cc1ccc(C2=Nn3c(nnc3-c3nc(C(C)C)cs3)SC2)cc1"
  log10 MIC: 1.20
- Compound: "CC(C)c1csc(-c2nnc3n2NC(c2ccc([N+](=O)[O-])cc2)S3)n1 (configuration not stated)"
  log10 MIC: 2.10
- Compound: "CC(C)c1csc(-c2nnc3n2NC(c2ccccc2Cl)S3)n1 (configuration not stated)"
  log10 MIC: 1.49
- Compound: "CC(C)c1csc(-c2nnc3n2N=C(c2ccc(Br)cc2)CS3)n1"
  log10 MIC: 2.10
- Compound: "COc1cc(/C=N/n2c(-c3nc(C(C)C)cs3)nn(CN3CCN(C)CC3)c2=S)cc(OC)c1OC"
  log10 MIC: 1.20
- Compound: "CC(C)c1csc(-c2nnc3n2N=C(c2ccc([N+](=O)[O-])cc2)CS3)n1"
  log10 MIC: 2.10
- Compound: "COc1cc(/C=N/n2c(-c3nc(C(C)C)cs3)nn(CN3CCOCC3)c2=S)cc(OC)c1OC"
  log10 MIC: 2.10
- Compound: "CC(C)c1csc(-c2nn(CN3CCN(C)CC3)c(=S)o2)n1"
  log10 MIC: 1.80
- Compound: "CC(C)c1csc(-c2nn(CN3CCOCC3)c(=S)n2/N=C/c2ccc(N(C)C)cc2)n1"
  log10 MIC: 1.20
- Compound: "COc1ccc(C2Nn3c(nnc3-c3nc(C(C)C)cs3)S2)cc1 (configuration not stated)"
  log10 MIC: 1.49
- Compound: "CC(C)c1csc(-c2nnc3n2N=C(c2ccc(Cl)cc2)CS3)n1"
  log10 MIC: 2.10
- Compound: "Cc1ccc(C(=O)Nn2c(-c3nc(C(C)C)cs3)n[nH]c2=S)cc1"
  log10 MIC: 1.80
- Compound: "CC(C)c1csc(-c2n[nH]c(=S)n2NC(=O)c2ccccc2)n1"
  log10 MIC: 1.20
- Compound: "CC(C)c1csc(-c2nn(CN3CCOCC3)c(=S)n2/N=C/c2ccccc2Cl)n1"
  log10 MIC: 1.49
- Compound: "CC(C)c1csc(-c2nnc3n2NC(c2ccc(N(C)C)cc2)S3)n1 (configuration not stated)"
  log10 MIC: 1.20
- Compound: "CC(C)c1csc(-c2nn(CN3CCN(C)CC3)c(=S)n2/N=C/c2ccc(N(C)C)cc2)n1"
  log10 MIC: 1.49
